Values were extracted from ChEMBL document CHEMBL1138250.

- Tested on: Plasmodium falciparum
- PROTOCOL_NOTES: Antimalarial activity against chloroquine-resistant Plasmodium falciparum K1
- Assay type: functional, organism-based
ATTRIBUTE_MEASURED: IC50 (µg/mL)

>  <COMPOUND>
C1CCC2(CC1)CC1(CCCCC1)OO2

>  <EXPERIMENTAL_SYSTEM>
Plasmodium falciparum

>  <MODIFIER>
=

>  <RESULT_VALUE>
0.041

$$$$
>  <COMPOUND>
C1CCC2(CC1)CC1(CCCC1)OO2

>  <EXPERIMENTAL_SYSTEM>
Plasmodium falciparum

>  <MODIFIER>
=

>  <RESULT_VALUE>
0.041

$$$$
>  <COMPOUND>
c1ccc(C2CCC3(CC2)CC2(OO3)C3CC4CC(C3)CC2C4)cc1 (configuration not stated)

>  <EXPERIMENTAL_SYSTEM>
Plasmodium falciparum

>  <MODIFIER>
>

>  <RESULT_VALUE>
1

$$$$
>  <COMPOUND>
CC1(CCC(=O)O)CC2(CCCCC2)OO1 (configuration not stated)

>  <EXPERIMENTAL_SYSTEM>
Plasmodium falciparum

>  <MODIFIER>
>

>  <RESULT_VALUE>
1

$$$$
>  <COMPOUND>
CC(C)(C)C1CCC2(CC1)CC1(CCCC1)OO2 (configuration not stated)

>  <EXPERIMENTAL_SYSTEM>
Plasmodium falciparum

>  <MODIFIER>
=

>  <RESULT_VALUE>
0.13

$$$$
>  <COMPOUND>
CC(C)(C)C1CCC2(CC1)CC1(CCCCC1)OO2 (configuration not stated)

>  <EXPERIMENTAL_SYSTEM>
Plasmodium falciparum

>  <MODIFIER>
=

>  <RESULT_VALUE>
0.063

$$$$
>  <COMPOUND>
CC1(CCCO)CC2(CCCCC2)OO1 (configuration not stated)

>  <EXPERIMENTAL_SYSTEM>
Plasmodium falciparum

>  <MODIFIER>
=

>  <RESULT_VALUE>
0.05

$$$$

###

- Tested on: Plasmodium falciparum
- PROTOCOL_NOTES: Antimalarial activity against chloroquine-resistant Plasmodium falciparum K1
- Assay type: functional, organism-based
Please note: IC50 exactly at 0.05 µg/mL is Criterion not met. Only values below 0.05 µg/mL get Criterion met.

>  <COMPOUND>
c1ccc(C2CCC3(CC2)CC2(CCCCC2)OO3)cc1 (configuration not stated)

>  <ANSWER_LABEL>
Criterion met

$$$$
>  <COMPOUND>
CCOC(=O)CCC1(C)CC2(CCCCC2)OO1 (configuration not stated)

>  <ANSWER_LABEL>
Criterion met

$$$$
>  <COMPOUND>
c1ccc(C2CCC3(CC2)CC2(CCCC2)OO3)cc1 (configuration not stated)

>  <ANSWER_LABEL>
Criterion met

$$$$
>  <COMPOUND>
C1CCC2(CC1)CC1(OO2)C2CC3CC(C2)CC1C3 (configuration not stated)

>  <ANSWER_LABEL>
Criterion not met

$$$$
>  <COMPOUND>
c1ccc(C2CC3(CCCCC3)OO2)cc1 (configuration not stated)

>  <ANSWER_LABEL>
Criterion not met

$$$$
>  <COMPOUND>
CCCC1(CCC)CC2(OO1)C1CC3CC(C1)CC2C3 (configuration not stated)

>  <ANSWER_LABEL>
Criterion not met

$$$$
>  <COMPOUND>
CCCC1(CCC)CC2(CCCCC2)OO1

>  <ANSWER_LABEL>
Criterion not met

$$$$
